Every entry's value here was drawn from patent US6348317B1.

target_or_test_system: T1, TO-ZF (thiazole orange-GR zinc finger conjugate) (UniProt P06536 SEQ:1-28)
T1 chain: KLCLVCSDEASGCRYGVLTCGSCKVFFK
test: TO fluorescence titration; single G to A change in half-site
condition_context: protein: synthetic; tags: thiazole orange on Lys epsilon-amine (first residue coupled to resin); synthetic solid-phase peptide (text states 29 aa, listing 28 aa), Zn-loaded
reported_property: Kd (nM)
Numbers only, in nM.

Problem: # query: Kd of entry GRE3 (dsDNA) DNA 1: TCATACATCTAACTATTCTATCA DNA 2: TGATAGAATAGTTAGATGTATGA
Result: 57
